- Target System: Cry1Ab insecticidal protein (Bacillus thuringiensis, UniProt P0A370 1-615)
- Procedure Summary: direct ELISA: protein coated at 500 ng/ml, 10 nM tagged synNAPS with SA-AP
Listing of recorded Binding to Insecticidal Protein (read at 405 nm) by entry.
Your answer should be a plain number; it is taken to be in absorbance 405 nm.

>  <Binder>
synNAPS-3tag ligand (designed binder, in vivo biotinylation (E. coli BirA strain) on the C-terminal avidin-tag, also called tagged synNAPS 3) MRGSHHHHHHGSVKVKFRWGGEEKEVDTSKIWYVARVGKWVLFGYDDNGKRGAGRVREKDAPKELLDMLARAEREKKLGSGLNDIFEAQKIEWH

>  <Assay Value>
0.75

$$$$
>  <Binder>
synNAPS-5tag ligand (designed binder, in vivo biotinylation (E. coli BirA strain) on the C-terminal avidin-tag, also called tagged synNAPS 5) MRGSHHHHHHGSVKVKFVLKGEEKEVDTSKITYVARYGKFVQFDYDDNGKFGAGVVLEKDAPKELLDMLARAEREKKLGSGLNDIFEAQKIEWH

>  <Assay Value>
1.1

$$$$
>  <Binder>
synNAPS-2tag ligand (designed binder, in vivo biotinylation (E. coli BirA strain) on the C-terminal avidin-tag, also called tagged synNAPS 2) MRGSHHHHHHGSVKVKFKYKGEEKEVDTSKIVWIGRFGKSVYFRYDDNGKTGAGRVYEKDAPKELLDMLARAEREKKLGSGLNDIFEAQKIEWH

>  <Assay Value>
1.8

$$$$

Q) Please give the measured Binding to Insecticidal Protein (read at 405 nm) for this binder: synNAPS-4tag ligand (designed binder, in vivo biotinylation (E. coli BirA strain) on the C-terminal avidin-tag, also called tagged synNAPS 4) MRGSHHHHHHGSVKVKFKYKGEEKEVDTSKISYVQRAGKSVYFNYDDNGKTGGGRVFEKDAPKELLDMLARAEREKKLGSGLNDIFEAQKIEWH
A) 1.75
